I'd be grateful if you could share measured OD490 Mean for these entries.
Test system: Caco-2 cell line
Assay: Cytotoxicity MTS assay, Caco-2 cell line
Assay type: cell-based
Details: 1μM; first assay; Caco-2 cell line
Answers are plain numbers.

Here is how some molecules turned out for OD490 Mean.
- CCOC(=O)c1c(C2NC(=O)NC(C)=C2C(=O)Nc2ccccc2C)[nH]c(C(=O)OC)c1C (stereo not shown) [D2]: 0.6349
- CCOC(=O)c1[nH]c(C2NC(=O)NC(C)=C2C(=O)Nc2ccc(Cl)cc2)c(C(=O)OCC)c1C (stereo not shown): 0.5311
- CCOC(=O)C1=C(C)NC(=S)NC1c1cccc(O)c1 (stereo not shown) [Monastrol, monastrol, reference compound]: 0.6316

Now turn to the next molecule.
OD490 Mean for Caco-2 cell line with input CCOC(=O)c1[nH]c(C2NC(=S)NC(C)=C2C(=O)OC)c(C(=O)OCC)c1C (stereo not shown) equals 0.4963
